I'd appreciate it if you could supply MIC values for the items below.
- Test system: MycoBacterium phiel 355
- protocolNotes: Minimum Inhibitory Concentration, agarwell diffusion assay (Table 6)
- Type: cell-based
- cond: Mycobacterium, 355, read-out: Minimum Inhibitory Concentration, MycoBacterium phiel 355
Counter-ions that a name gives are not always drawn.
One number for each entry, in µg/mL.

// worked examples, MIC included
| compound | observedResult |
| --- | --- |
| CCCCNC(=O)OCC1(O)OC(C2CC(C)C(C3(CC)CCC(C4(C)CCC5(CC(O)C(C)C(C(C)C(OC)C(C)C(=O)O)O5)O4)O3)O2)C(C)CC1C (centres unmarked) [Monensin A, N-butylurethane] | 6.3 |
| CCC1(C2OC(C3OC(O)(COC(=O)NCCc4ccccc4)C(C)CC3C)CC2C)CCC(C2(C)CCC3(CC(O)C(C)C(C(C)C(OC)C(C)C(=O)O)O3)O2)O1 (centres unmarked) [Monensin A, 2-phenethylurethane] | 6.3 |
| CCC1(C2OC(C3OC(O)(COC(=O)Nc4ccc(F)cc4)C(C)CC3C)CC2C)CCC(C2(C)CCC3(CC(O)C(C)C(C(C)C(OC)C(C)C(=O)O)O3)O2)O1 (centres unmarked) [Monensin A, 4-fluorophenylurethane] | 3.1 |

List MIC for every entry below, keeping the order given.
1. CCC1(C2OC(C3OC(O)(COC(=O)NC4CC4c4ccccc4)C(C)CC3C)CC2C)CCC(C2(C)CCC3(CC(O)C(C)C(C(C)C(OC)C(C)C(=O)O)O3)O2)O1 (centres unmarked)
2. CCC1(C2OC(C3OC(O)(COC(=O)Nc4ccc(Br)cc4)C(C)CC3C)CC2C)CCC(C2(C)CCC3(CC(O)C(C)C(C(C)C(OC)C(C)C(=O)O)O3)O2)O1 (centres unmarked) [Monensin A, 4-bromophenylurethane, sodium salt]

Result:
1: 3.1; 2: 1.6
